Field: CC50. Provide a value for each of the molecules that follow.
Tested on: HeLa
Test: Cytotoxicity against human HeLa cells assessed as reduction in cell viability incubated for 72 hrs measured by crystal violet based micro plate reader method
Settings: hela, 72 h

Fill blank: measured CC50 of the molecule `CNC(=O)c1cc(CCCOc2c(C)cc(-c3noc(C(F)(F)F)n3)cc2C)on1` is ____.
> 100 µM

How about `CCOC(=O)c1cc(CCCOc2ccc(-c3noc(C(F)(F)F)n3)cc2NC(C)=O)on1` ?
> 100 µM

How about `CCOC(=O)c1cc(CCCOc2ccc(-c3noc(C(F)(F)F)n3)cc2/N=C/N(C)C)on1` ?
> 100 µM
